Data origin: patent US9173396B2

experiment: log P by HPLC-MS; settings: HCOOH (formic acid), log P (HCOOH), HPLC-MS, HCOOH
parameter: chromatographic logP
Answer with the value's number alone.

Solved cases (2 shown):
Cn1nc(-c2cccc(-c3ncccn3)n2)cc1-c1cccnc1 [Compound 2] :: 1.26
Brc1cccc(-c2cc(-c3cccnc3)no2)n1 [Compound 1] :: 2.23

Output chromatographic logP of c1cnc(-c2cccc(-n3cnc(-c4cccnc4)c3)n2)nc1 [Compound 3]
0.75

----------
assay: log P by HPLC-MS; details: HPLC-MS, log P, eluent not stated
parameter: chromatographic logP

Give the value of chromatographic logP reported for the following: CN(C)S(=O)(=O)NC(=O)c1cccc(-n2ccc(-c3cncc(F)c3)n2)n1 [Compound 22]
2.61
